Source: ChEMBL document CHEMBL1157965

- System: Bel-7402
- protocolText: Cytotoxicity against human Bel7402 cells after 96 hrs by MTT assay
- Assay type: functional, cell-based
- recordedConditions: Bel-7402, 96 h
pIC50: −log10 of the molar value.
# pIC50 per entry

- molecule: "COc1cc(O)c(-c2c(O)cc(OC)c3c2ccc2cc(O)ccc23)c2ccc3cc(O)ccc3c12"
  comparator: "="
  pIC50: 5.08
- molecule: "COC1=CC(=O)C(O)(CC(C)=O)c2ccc3cc(O)ccc3c21 (centres undefined)"
  comparator: "<"
  pIC50: 4.80
- molecule: "COc1cc(O)cc2ccc3cc(O)ccc3c12"
  comparator: "<"
  pIC50: 4.68
- molecule: "COC1=CC(=O)C(O)(CC(C)=O)c2ccc3cc(OC)ccc3c21 (centres undefined)"
  comparator: "<"
  pIC50: 4.82
- molecule: "COc1ccc2c(ccc3c(-c4c(O)cc(OC)c5c4ccc4cc(O)ccc45)c(O)cc(OC)c32)c1"
  comparator: "<"
  pIC50: 4.99
- molecule: "CC[C@@]1(O)C(=O)OCc2c1cc1n(c2=O)Cc2cc3c(CN(C)C)c(O)ccc3nc2-1"
  comparator: "="
  pIC50: 5.92
- molecule: "COc1ccc2c(ccc3cc(O)cc(OC)c32)c1"
  comparator: "<"
  pIC50: 5.30
- molecule: "COc1ccc2c(ccc3c(-c4c(O)ccc5c4ccc4c(-c6c(O)cc(OC)c7c6ccc6cc(O)ccc67)c(O)cc(OC)c45)c(O)cc(OC)c32)c1"
  comparator: "="
  pIC50: 5.09
- molecule: "COc1ccc2c(ccc3c(-c4c(O)cc(OC)c5c4ccc4cc(OC)ccc45)c(O)cc(OC)c32)c1"
  comparator: "="
  pIC50: 4.95

* * *

- Tested on: A2780
- protocolText: Cytotoxicity against human A2780 cells after 96 hrs by MTT assay
- Assay type: functional, cell-based
- recordedConditions: A2780, 96 h

- molecule: "COc1cc(O)c(-c2c(O)cc(OC)c3c2ccc2cc(O)ccc23)c2ccc3cc(O)ccc3c12"
  assayTarget: "A2780"
  comparator: "="
  IC50 [µM]: 13.2
- molecule: "COc1cc(O)cc2ccc3cc(O)ccc3c12"
  assayTarget: "A2780"
  comparator: ">"
  IC50 [µM]: 20.8
- molecule: "COC1=CC(=O)C(O)(CC(C)=O)c2ccc3cc(OC)ccc3c21 (centres undefined)"
  assayTarget: "A2780"
  comparator: ">"
  IC50 [µM]: 15.3
- molecule: "COC1=CC(=O)C(O)(CC(C)=O)c2ccc3cc(O)ccc3c21 (centres undefined)"
  assayTarget: "A2780"
  comparator: ">"
  IC50 [µM]: 16
- molecule: "CC[C@@]1(O)C(=O)OCc2c1cc1n(c2=O)Cc2cc3c(CN(C)C)c(O)ccc3nc2-1"
  assayTarget: "A2780"
  comparator: "="
  IC50 [µM]: 1.1
- molecule: "COc1ccc2c(ccc3cc(O)cc(OC)c32)c1"
  assayTarget: "A2780"
  comparator: ">"
  IC50 [µM]: 5
- molecule: "COc1ccc2c(ccc3c(-c4c(O)cc(OC)c5c4ccc4cc(OC)ccc45)c(O)cc(OC)c32)c1"
  assayTarget: "A2780"
  comparator: "="
  IC50 [µM]: 11
- molecule: "COc1ccc2c(ccc3c(-c4c(O)cc(OC)c5c4ccc4cc(O)ccc45)c(O)cc(OC)c32)c1"
  assayTarget: "A2780"
  comparator: ">"
  IC50 [µM]: 10.2
- molecule: "COc1ccc2c(ccc3c(-c4c(O)ccc5c4ccc4c(-c6c(O)cc(OC)c7c6ccc6cc(O)ccc67)c(O)cc(OC)c45)c(O)cc(OC)c32)c1"
  assayTarget: "A2780"
  comparator: "="
  IC50 [µM]: 8.1
